assay procedure: Human liver microsome intrinsic clearance
Type: in vitro ADME
Items are presented alongside their recorded Human Liver Microsome CLint.
readout type: Human Liver Microsome CLint (µL/min/mg)

>  <smiles code>
COc1ccc(Nc2ccnc3cc(Nc4ccnc(N5CCN(C)CC5)n4)ccc23)cc1Cl

>  <readout type>
Human Liver Microsome CLint

>  <numeric result>
45

$$$$
>  <smiles code>
c1cnc(Nc2ccnc3cc(Nc4nccnn4)ccc23)cn1

>  <readout type>
Human Liver Microsome CLint

>  <numeric result>
42

$$$$
>  <smiles code>
Cc1cnc(Nc2ccc3c(Nc4cnccn4)ccnc3c2)s1

>  <readout type>
Human Liver Microsome CLint

>  <numeric result>
54

$$$$
>  <smiles code>
Cc1n[nH]c(C)c1Nc1ccc2c(Nc3cnccn3)ccnc2c1

>  <readout type>
Human Liver Microsome CLint

>  <numeric result>
8

$$$$
>  <smiles code>
Cn1ccnc1Nc1ccc2c(Nc3cnccn3)ccnc2c1

>  <readout type>
Human Liver Microsome CLint

>  <numeric result>
12

$$$$
>  <smiles code>
c1cnc(Nc2ccnc3cc(Nc4nccs4)ccc23)cn1

>  <readout type>
Human Liver Microsome CLint

>  <numeric result>
68

$$$$
>  <smiles code>
Cc1nn(C)c(C)c1Nc1ccc2c(Nc3cnccn3)ccnc2c1

>  <readout type>
Human Liver Microsome CLint

>  <numeric result>
13

$$$$
>  <smiles code>
Cn1cc(-c2ccc3c(Nc4cnccn4)ccnc3c2)cn1

>  <readout type>
Human Liver Microsome CLint

>  <numeric result>
25

$$$$
>  <smiles code>
Cn1cc(Nc2ccc3c(Nc4cnccn4)ccnc3c2)cn1

>  <readout type>
Human Liver Microsome CLint

>  <numeric result>
10

$$$$
>  <smiles code>
c1cnc(Nc2ccnc3cc(-c4cn[nH]c4)ccc23)cn1

>  <readout type>
Human Liver Microsome CLint

>  <numeric result>
130

$$$$

* * *

assay procedure: LogD7.4
Format: physicochemical
measurement setup: pH 7.4
logD of 4 or higher: criterion met. Under 4: criterion not met.

>  <smiles code>
COc1ccc(Nc2ccnc3cc(-c4ccc(S(=O)(=O)N5CCN(C)CC5)cc4)ccc23)cc1

>  <group label>
criterion met

$$$$
>  <smiles code>
CC(C)(C)OC(=O)Nc1ccc2c(Nc3ccc(OCc4cccc(F)c4)c(Cl)c3)ccnc2c1

>  <group label>
criterion met

$$$$
>  <smiles code>
Fc1cccc(COc2ccc(Nc3ccnc4cc(-c5cn[nH]c5)ccc34)cc2Cl)c1

>  <group label>
criterion met

$$$$
>  <smiles code>
CN1CCN(S(=O)(=O)c2ccc(-c3ccc4c(Nc5cnccn5)ccnc4c3)cc2)CC1

>  <group label>
criterion not met

$$$$
>  <smiles code>
COc1ncc(Nc2ccnc3cc(-c4ccc(S(=O)(=O)N5CCN(C)CC5)cc4)ccc23)cn1

>  <group label>
criterion not met

$$$$
>  <smiles code>
CN1CCN(S(=O)(=O)c2ccc(-c3ccc4c(Nc5ccc(C(F)(F)F)nc5)ccnc4c3)cc2)CC1

>  <group label>
criterion met

$$$$
>  <smiles code>
CN1CCN(c2ccnc(Nc3ccc4c(Nc5ccc(OCc6cccc(F)c6)c(Cl)c5)ccnc4c3)n2)CC1

>  <group label>
criterion met

$$$$

* * *

Test system: HepG2 cells
assay procedure: Drug toxicity to HepG2 cells (MTT, 48 h)
Format: cell-based, human
measurement setup: tested concentration ranges based on compound solubility

>  <smiles code>
CN1CCN(c2ncc(-c3ccc4c(Nc5cnccn5)ccnc4c3)cn2)CC1

>  <qualifier symbol>
>

>  <HepG2 TC50 (µM)>
38

$$$$
>  <smiles code>
Cc1n[nH]c(C)c1Nc1ccc2c(Nc3cnccn3)ccnc2c1

>  <qualifier symbol>
=

>  <HepG2 TC50 (µM)>
40

$$$$
>  <smiles code>
Cc1nn(C)c(C)c1Nc1ccc2c(Nc3cnccn3)ccnc2c1

>  <qualifier symbol>
=

>  <HepG2 TC50 (µM)>
39

$$$$

* * *

Tested on: NIH/3T3 cells
assay procedure: Drug toxicity to 3T3 cells (Alamar Blue, 96 h)
Format: cell-based

>  <compound>
CN1CCN(S(=O)(=O)c2ccc(-c3ccc4c(Nc5ccc6[nH]nnc6c5)ccnc4c3)cc2)CC1 [NEU-1018]

>  <3T3 TC50>
> 100 µM

$$$$
>  <compound>
Cc1nnc(Nc2ccc3c(Nc4cnccn4)ccnc3c2)nc1C [NEU-2151]

>  <3T3 TC50>
> 100 µM

$$$$
>  <compound>
c1cnc(Nc2ccnc3cc(Nc4nccs4)ccc23)cn1 [NEU-2141]

>  <3T3 TC50>
24 µM

$$$$
>  <compound>
Cn1cc(-c2ccc3c(Nc4cnccn4)ccnc3c2)cn1 [NEU-2129]

>  <3T3 TC50>
37 µM

$$$$
>  <compound>
CN1CCN(S(=O)(=O)c2ccc(-c3ccc4c(Nc5ccnnc5)ccnc4c3)cc2)CC1 [NEU-1020]

>  <3T3 TC50>
> 100 µM

$$$$
>  <compound>
Cn1ccnc1Nc1ccc2c(Nc3cnccn3)ccnc2c1 [NEU-2147]

>  <3T3 TC50>
> 100 µM

$$$$
>  <compound>
CN1CCN(S(=O)(=O)c2ccc(-c3ccc4c(Nc5cnc(C#N)cn5)ccnc4c3)cc2)CC1 [NEU-1024]

>  <3T3 TC50>
> 100 µM

$$$$
>  <compound>
COc1ccc(Nc2ccnc3cc(Nc4ccnc(N5CCN(C)CC5)n4)ccc23)cc1Cl [NEU-2093]

>  <3T3 TC50>
15 µM

$$$$

* * *

assay procedure: Aqueous solubility
Assay type: physicochemical
readout type: solubility

>  <molecule>
COc1ccc(Nc2ccnc3cc(-c4cnc(N5CCN(C)CC5)nc4)ccc23)cc1Cl [Compound 23]

>  <result>
< 1 µM

$$$$
>  <molecule>
Cc1cc(Nc2ccnc3cc(-c4ccc(S(=O)(=O)N5CCN(C)CC5)cc4)ccc23)sn1 [NEU-1023]

>  <result>
< 1 µM

$$$$
>  <molecule>
CN1CCN(S(=O)(=O)c2ccc(-c3ccc4c(Nc5ccnnc5)ccnc4c3)cc2)CC1 [NEU-1020]

>  <result>
> 1000 µM

$$$$

* * *

assay procedure: Aqueous solubility
Type: physicochemical
readout type: solubility

>  <compound>
CN1CCN(c2ncc(-c3ccc4c(Nc5ccc(OCc6cccc(F)c6)c(Cl)c5)ccnc4c3)cn2)CC1 [Compound 14]

>  <result>
< 1 µM

$$$$
>  <compound>
CN1CCN(S(=O)(=O)c2ccc(-c3ccc4c(Nc5cnc(C#N)cn5)ccnc4c3)cc2)CC1 [NEU-1024]

>  <result>
< 1 µM

$$$$
>  <compound>
CN1CCN(S(=O)(=O)c2ccc(-c3ccc4c(Nc5ccc(Cl)cn5)ccnc4c3)cc2)CC1 [Compound 5]

>  <result>
< 1 µM

$$$$

* * *

Measured EC50, listed per entry.
Tested on: T. congolense IL3000
assay procedure: In vitro drug sensitivity assay for T. congolense (72 h)
Assay type: cell-based
measurement setup: Trypanosoma congolense, IL3000 strain

>  <molecule>
CN1CCN(c2nsnc2-c2ccc3c(Nc4ccc(OCc5cccc(F)c5)c(Cl)c4)ccnc3c2)CC1 [Compound 15]

>  <tgt>
T. congolense IL3000

>  <EC50>
390 nM

$$$$
>  <molecule>
CC(C)(C)OC(=O)Nc1ccc2c(Nc3ccc(OCc4cccc(F)c4)c(Cl)c3)ccnc2c1 [Compound 21]

>  <tgt>
T. congolense IL3000

>  <EC50>
830 nM

$$$$
>  <molecule>
CN1CCN(S(=O)(=O)c2ccc(-c3ccc4c(Nc5ccc(OCc6cccc(F)c6)c(Cl)c5)ccnc4c3)cc2)CC1 [Compound 1]

>  <tgt>
T. congolense IL3000

>  <EC50>
140 nM

$$$$
>  <molecule>
N=C(N)c1ccc(/N=N/Nc2ccc(C(=N)N)cc2)cc1 [Diminazene, diminazene aceturate, reference compound]

>  <tgt>
T. congolense IL3000

>  <EC50>
130 nM

$$$$
>  <molecule>
CN1CCN(c2ncc(-c3ccc4c(Nc5ccc(OCc6cccc(F)c6)c(Cl)c5)ccnc4c3)cn2)CC1 [Compound 14]

>  <tgt>
T. congolense IL3000

>  <EC50>
160 nM

$$$$
>  <molecule>
Fc1cccc(COc2ccc(Nc3ccnc4cc(-c5cn[nH]c5)ccc34)cc2Cl)c1 [Compound 16]

>  <tgt>
T. congolense IL3000

>  <EC50>
470 nM

$$$$
>  <molecule>
CN1CCN(c2ncc(-c3ccc4c(Nc5cnccn5)ccnc4c3)cn2)CC1 [Compound 22]

>  <tgt>
T. congolense IL3000

>  <EC50>
50 nM

$$$$
>  <molecule>
CC[n+]1c(-c2ccccc2)c2cc(N/N=N/c3cccc(C(=N)N)c3)ccc2c2ccc(N)cc21 [Isometamidium, isometamidium chloride, reference compound]

>  <tgt>
T. congolense IL3000

>  <EC50>
6 nM

$$$$

* * *

Test system: T. cruzi amastigote (Tulahuen strain expressing β-galactosidase)
assay procedure: Intracellular T. cruzi assay in 3T3 cells (beta-galactosidase, 96 h)
Assay type: cell-based, Trypanosoma cruzi
measurement setup: Trypanosoma cruzi, TULAHUEN, NIH3T3, 96 h, read-out: T. cruzi amastigote EC50
// NB: equality with 3000 nM counts as class 0; only EC50 strictly below is class 1

>  <compound>
CN1CCN(S(=O)(=O)c2cccc(-c3ccc4c(Nc5ccc(OCc6cccc(F)c6)c(Cl)c5)ccnc4c3)c2)CC1 [Compound 13]

>  <group label>
class 0

$$$$
>  <compound>
CN1CCN(c2ccc(Nc3ccc4c(Nc5ccc(OCc6cccc(F)c6)c(Cl)c5)ccnc4c3)cc2)CC1 [Compound 17]

>  <group label>
class 1

$$$$
>  <compound>
COc1cnc(Nc2ccnc3cc(-c4ccc(S(=O)(=O)N5CCN(C)CC5)cc4)ccc23)cn1 [Compound 3]

>  <group label>
class 0

$$$$
>  <compound>
CN1CCN(S(=O)(=O)c2ccc(-c3ccc4c(Nc5ccc(C(F)(F)F)nc5)ccnc4c3)cc2)CC1 [Compound 12]

>  <group label>
class 0

$$$$
>  <compound>
CN1CCN(S(=O)(=O)c2ccc(-c3ccc4c(Nc5cnccn5)ccnc4c3)cc2)CC1 [Compound 4]

>  <group label>
class 0

$$$$
>  <compound>
CN1CCN(c2nccc(Nc3ccc4c(Nc5ccc(OCc6cccc(F)c6)c(Cl)c5)ccnc4c3)n2)CC1 [Compound 20]

>  <group label>
class 0

$$$$
>  <compound>
CN1CCN(S(=O)(=O)c2ccc(-c3ccc4c(Nc5cccc(Cl)c5)ccnc4c3)cc2)CC1 [Compound 7]

>  <group label>
class 0

$$$$
>  <compound>
CN1CCN(c2ncc(-c3ccc4c(Nc5ccc(OCc6cccc(F)c6)c(Cl)c5)ccnc4c3)cn2)CC1 [Compound 14]

>  <group label>
class 1

$$$$
>  <compound>
COc1ncc(Nc2ccnc3cc(-c4ccc(S(=O)(=O)N5CCN(C)CC5)cc4)ccc23)cn1 [Compound 2]

>  <group label>
class 0

$$$$
>  <compound>
CN1CCN(c2ncc(Nc3ccc4c(Nc5ccc(OCc6cccc(F)c6)c(Cl)c5)ccnc4c3)cn2)CC1 [Compound 18]

>  <group label>
class 1

$$$$
>  <compound>
CC(C)(C)OC(=O)Nc1ccc2c(Nc3ccc(OCc4cccc(F)c4)c(Cl)c3)ccnc2c1 [Compound 21]

>  <group label>
class 1

$$$$
>  <compound>
CN1CCN(c2ccnc(Nc3ccc4c(Nc5ccc(OCc6cccc(F)c6)c(Cl)c5)ccnc4c3)n2)CC1 [Compound 19]

>  <group label>
class 1

$$$$
>  <compound>
CN1CCN(c2ncc(-c3ccc4c(Nc5cnccn5)ccnc4c3)cn2)CC1 [Compound 22]

>  <group label>
class 0

$$$$
>  <compound>
C[C@@H]1[C@H](O)[C@@H](C)/C=C/C=C/C=C/C=C/C=C/C=C/C=C/[C@H](O[C@@H]2O[C@H](C)[C@@H](O)[C@H](N)[C@@H]2O)C[C@@H]2O[C@](O)(C[C@@H](O)C[C@@H](O)[C@H](O)CC[C@@H](O)C[C@@H](O)CC(=O)O[C@H]1C)C[C@H](O)[C@H]2C(=O)O [Amphotericin B, reference compound]

>  <group label>
class 1

$$$$
>  <compound>
CN1CCN(S(=O)(=O)c2ccc(-c3ccc4c(Nc5ccc(OCc6cccc(F)c6)c(Cl)c5)ccnc4c3)cc2)CC1 [Compound 1]

>  <group label>
class 1

$$$$
>  <compound>
CN1CCN(S(=O)(=O)c2ccc(-c3ccc4c(Nc5ccc(Cl)cn5)ccnc4c3)cc2)CC1 [Compound 5]

>  <group label>
class 1

$$$$
>  <compound>
Cc1ccc(Nc2ccnc3cc(-c4ccc(S(=O)(=O)N5CCN(C)CC5)cc4)ccc23)cc1Cl [Compound 8]

>  <group label>
class 0

$$$$
>  <compound>
COc1ccc(Nc2ccnc3cc(-c4cnc(N5CCN(C)CC5)nc4)ccc23)cc1Cl [Compound 23]

>  <group label>
class 1

$$$$

Just for reference, paper PMC6283615 is where these values come from.
